Origin of measurements: ChEMBL document CHEMBL4425124

# TARGET OR SYSTEM: UniProt:P08183
# Sequence (P08183 whole entry): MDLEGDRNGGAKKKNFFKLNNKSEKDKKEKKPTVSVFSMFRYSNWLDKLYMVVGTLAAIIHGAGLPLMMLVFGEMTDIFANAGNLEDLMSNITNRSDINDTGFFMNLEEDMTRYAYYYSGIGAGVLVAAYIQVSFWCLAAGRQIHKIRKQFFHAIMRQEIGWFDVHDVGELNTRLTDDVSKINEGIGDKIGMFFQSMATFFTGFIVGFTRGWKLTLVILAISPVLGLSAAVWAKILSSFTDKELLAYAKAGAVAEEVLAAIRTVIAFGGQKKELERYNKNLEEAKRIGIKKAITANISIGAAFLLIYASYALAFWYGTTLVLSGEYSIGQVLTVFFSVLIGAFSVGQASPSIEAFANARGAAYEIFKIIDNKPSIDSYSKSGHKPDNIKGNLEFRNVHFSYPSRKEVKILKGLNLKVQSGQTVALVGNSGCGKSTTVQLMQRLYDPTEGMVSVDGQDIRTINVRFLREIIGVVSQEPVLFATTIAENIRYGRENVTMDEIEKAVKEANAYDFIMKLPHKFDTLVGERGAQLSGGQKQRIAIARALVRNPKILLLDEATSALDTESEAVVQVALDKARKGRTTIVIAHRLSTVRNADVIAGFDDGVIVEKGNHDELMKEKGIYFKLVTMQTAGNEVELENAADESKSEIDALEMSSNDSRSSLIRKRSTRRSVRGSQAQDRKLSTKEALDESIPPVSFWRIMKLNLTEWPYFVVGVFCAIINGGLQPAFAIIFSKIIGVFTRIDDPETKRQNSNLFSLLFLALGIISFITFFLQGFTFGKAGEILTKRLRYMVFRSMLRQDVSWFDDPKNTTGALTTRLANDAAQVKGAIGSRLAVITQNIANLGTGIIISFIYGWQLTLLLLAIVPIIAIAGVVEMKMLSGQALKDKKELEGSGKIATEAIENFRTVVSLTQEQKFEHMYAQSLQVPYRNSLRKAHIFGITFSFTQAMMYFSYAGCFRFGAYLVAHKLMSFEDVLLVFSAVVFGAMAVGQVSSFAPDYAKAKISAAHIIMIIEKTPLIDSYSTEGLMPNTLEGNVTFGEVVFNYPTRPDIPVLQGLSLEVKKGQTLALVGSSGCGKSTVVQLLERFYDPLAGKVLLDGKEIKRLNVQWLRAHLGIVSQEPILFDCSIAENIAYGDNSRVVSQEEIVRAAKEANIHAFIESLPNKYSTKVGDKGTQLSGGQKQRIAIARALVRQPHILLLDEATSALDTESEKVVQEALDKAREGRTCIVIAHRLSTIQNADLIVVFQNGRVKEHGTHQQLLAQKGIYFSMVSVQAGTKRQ
# TEST METHOD NOTES: Substrate activity at p-gp in human Caco2 cells assessed as ratio of apparent permeability across basolateral to apical over apical to basolateral side at 100 uM after 120 mins by UV-Vis spectroscopy
# Type: ADME, cell-based
# CONDITIONS: Caco-2
MEASUREMENT KIND: efflux ratio at 2 h, 100 µM
Give only the figure.

Provide only the value of recorded efflux ratio at 2 h, 100 µM for COc1cc2c(cc1OC)CN(Cc1ccc(-c3ccc(OCCOc4nonc4C#N)cc3)cc1)CC2 4.7

Provide only the value of recorded efflux ratio at 2 h, 100 µM for COc1cc2c(cc1OC)CN(Cc1ccc(-c3ccc(OCCCOc4nonc4OCc4ccccc4)cc3)cc1)CC2 3

Provide only the value of recorded efflux ratio at 2 h, 100 µM for COc1cc2c(cc1OC)CN(Cc1ccc(-c3ccc(OCCOc4nonc4OC)cc3)cc1)CC2 3.2

Provide only the value of recorded efflux ratio at 2 h, 100 µM for COc1cc2c(cc1OC)CN(Cc1ccc(-c3ccc(OCCCCOc4nonc4OC)cc3)cc1)CC2 3

Provide only the value of recorded efflux ratio at 2 h, 100 µM for COc1cc2c(cc1OC)CN(Cc1ccc(-c3ccc(OCCCOc4nonc4C#N)cc3)cc1)CC2 4.9
